B1: Pistol ribozyme (parent)
chain: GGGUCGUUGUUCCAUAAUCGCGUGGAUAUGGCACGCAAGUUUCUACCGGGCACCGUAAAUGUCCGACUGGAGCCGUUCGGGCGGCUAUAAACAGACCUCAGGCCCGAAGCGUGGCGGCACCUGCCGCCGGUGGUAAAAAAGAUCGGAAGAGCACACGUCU

Variants of: B1
PROTOCOL DETAILS: aptazyme ON/OFF ratio, guanine; higher = stronger switching; co-transcriptional cleavage with and without guanine
METRIC: aptazyme ON/OFF ratio
Answer using only a numeral; do not append any unit.

// below: answered variants
INSERT INTO results (mutation_key, numeric_value) VALUES
  ('U7G G9A U10A U11G C12G C13A', 1.09),
  ('G9U U10A U11G C12A C13U', 1.25);

Query :: Find the recorded aptazyme ON/OFF ratio belonging to U7A U8C G9A U10G U11C and report it.
Result :: 1.04

Query :: Follow-up item: U7A U8C U10C C12U C13G
Result :: 1.26

Query :: Follow-up item: U7G U8C G9C U10A U11G C13G
Result :: 1.15

Query :: Follow-up item: U7A U8A U11G C12A C13U
Result :: 1.46

Query :: Follow-up item: U8C G9C U10A U11C C13U
Result :: 1.14
